target: ATP-binding cassette transporter A1 (ABCA1) (UniProt P41233 1-2261, limits assumed); experiment: cell-based or functional assay
Sequence (P41233 whole entry): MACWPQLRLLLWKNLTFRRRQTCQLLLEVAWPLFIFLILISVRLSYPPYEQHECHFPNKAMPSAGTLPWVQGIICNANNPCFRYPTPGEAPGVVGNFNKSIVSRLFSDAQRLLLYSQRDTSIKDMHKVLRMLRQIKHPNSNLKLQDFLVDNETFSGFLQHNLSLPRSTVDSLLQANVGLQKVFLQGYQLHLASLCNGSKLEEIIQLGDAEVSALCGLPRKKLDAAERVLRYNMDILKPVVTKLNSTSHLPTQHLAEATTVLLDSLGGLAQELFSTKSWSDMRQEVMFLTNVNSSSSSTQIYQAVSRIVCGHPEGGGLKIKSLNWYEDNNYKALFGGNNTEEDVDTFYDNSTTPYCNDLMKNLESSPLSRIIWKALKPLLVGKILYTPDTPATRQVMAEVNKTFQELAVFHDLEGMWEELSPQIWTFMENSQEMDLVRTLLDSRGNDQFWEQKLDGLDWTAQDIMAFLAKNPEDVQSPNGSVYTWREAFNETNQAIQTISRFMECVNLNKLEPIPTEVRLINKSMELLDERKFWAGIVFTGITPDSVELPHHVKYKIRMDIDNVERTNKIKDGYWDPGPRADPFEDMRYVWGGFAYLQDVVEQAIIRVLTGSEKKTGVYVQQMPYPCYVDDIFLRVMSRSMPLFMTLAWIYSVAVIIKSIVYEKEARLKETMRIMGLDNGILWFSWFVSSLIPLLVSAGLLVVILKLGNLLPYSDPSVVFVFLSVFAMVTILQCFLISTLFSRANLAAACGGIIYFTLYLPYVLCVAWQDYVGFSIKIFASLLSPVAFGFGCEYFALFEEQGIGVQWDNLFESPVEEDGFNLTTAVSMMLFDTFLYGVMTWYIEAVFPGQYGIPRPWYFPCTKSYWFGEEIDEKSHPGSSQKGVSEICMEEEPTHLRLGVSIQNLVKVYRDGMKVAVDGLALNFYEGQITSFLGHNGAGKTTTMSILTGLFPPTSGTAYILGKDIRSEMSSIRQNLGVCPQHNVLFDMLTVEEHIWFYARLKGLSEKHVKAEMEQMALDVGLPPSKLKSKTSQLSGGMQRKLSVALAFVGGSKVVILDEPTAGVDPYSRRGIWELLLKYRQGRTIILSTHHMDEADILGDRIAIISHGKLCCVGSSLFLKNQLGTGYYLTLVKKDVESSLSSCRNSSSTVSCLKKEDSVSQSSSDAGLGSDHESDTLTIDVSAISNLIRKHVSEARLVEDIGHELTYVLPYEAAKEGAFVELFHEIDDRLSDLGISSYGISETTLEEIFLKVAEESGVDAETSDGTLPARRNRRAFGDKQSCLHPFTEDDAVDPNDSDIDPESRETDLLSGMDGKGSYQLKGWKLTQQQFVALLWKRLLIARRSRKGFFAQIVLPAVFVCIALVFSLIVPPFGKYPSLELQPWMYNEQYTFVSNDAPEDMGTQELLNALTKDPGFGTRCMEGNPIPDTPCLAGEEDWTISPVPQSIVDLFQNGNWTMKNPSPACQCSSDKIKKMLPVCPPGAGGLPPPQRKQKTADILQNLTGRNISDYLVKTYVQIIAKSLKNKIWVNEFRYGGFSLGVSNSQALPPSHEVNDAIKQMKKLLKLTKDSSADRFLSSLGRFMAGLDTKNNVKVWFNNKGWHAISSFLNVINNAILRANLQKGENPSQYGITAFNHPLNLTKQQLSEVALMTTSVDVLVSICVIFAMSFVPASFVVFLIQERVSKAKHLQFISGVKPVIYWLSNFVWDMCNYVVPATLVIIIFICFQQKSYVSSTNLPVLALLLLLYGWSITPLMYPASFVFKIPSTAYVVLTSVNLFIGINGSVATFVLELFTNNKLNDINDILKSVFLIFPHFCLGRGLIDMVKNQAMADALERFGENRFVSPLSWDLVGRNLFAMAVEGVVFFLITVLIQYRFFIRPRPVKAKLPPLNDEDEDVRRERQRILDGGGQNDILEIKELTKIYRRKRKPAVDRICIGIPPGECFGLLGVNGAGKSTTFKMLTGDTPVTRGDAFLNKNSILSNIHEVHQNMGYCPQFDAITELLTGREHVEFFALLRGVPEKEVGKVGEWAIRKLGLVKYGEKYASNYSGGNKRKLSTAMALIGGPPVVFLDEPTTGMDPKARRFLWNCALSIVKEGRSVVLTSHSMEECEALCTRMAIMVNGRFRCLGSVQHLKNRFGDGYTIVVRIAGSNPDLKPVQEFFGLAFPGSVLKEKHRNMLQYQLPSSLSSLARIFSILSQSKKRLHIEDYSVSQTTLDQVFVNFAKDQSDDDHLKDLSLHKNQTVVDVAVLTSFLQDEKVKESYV
measurementKind: % cholesterol efflux/4 hours at 30 µg/ml (%)

P: ELRDKLEAWLDLLRELLERL [N1154-8]
Q: DLRDRLDAWLDLLRDLLDRL [N1154-11]
(Q) Which record shows the lower % cholesterol efflux/4 hours at 30 µg/ml: the first, P , or the second, Q ? # reply format: chosen label
(A) P
(P: 3.02%, Q: 5.55%)
